- Test system: human coronavirus (HCoV) 229E
- procedure-details: microbe, parasite or virus in culture
- Format: cell-based, human coronavirus 229E
- study-conditions: MRCS cells, HCoV 229E, 3 days, CellTiter Glo; read-out: 229E CPE EC50
pEC50: −log10 of the molar value.
readout: pEC50

# given-smiles, readout, readout-number
measured = [
    ("CC(C)(C)[C@H](NC(=S)NC1CC1)C(=O)N1C[C@H]2[C@@H]([C@H]1C(=O)N[C@H](C#N)C[C@@H]1CCNC1=O)C2(C)C", "pEC50", 5.12),
    ("CC(C)(C)[C@H](NS(=O)(=O)c1ccc2ccccc2c1)C(=O)N1C[C@H]2[C@@H]([C@H]1C(=O)N[C@H](C#N)C[C@@H]1CCNC1=O)C2(C)C", "pEC50", 6.90),
    ("CC(C)(C)[C@H](NC(=O)C(Cl)(Cl)C(F)(F)F)C(=O)N1C[C@H]2[C@@H]([C@H]1C(=O)N[C@H](C#N)C[C@@H]1CCNC1=O)C2(C)C", "pEC50", 6.49),
    ("COc1ccccc1S(=O)(=O)N[C@H](C(=O)N1C[C@H]2[C@@H]([C@H]1C(=O)N[C@H](C#N)C[C@@H]1CCNC1=O)C2(C)C)C(C)(C)C", "pEC50", 5.91),
    ("CC(C)(C)[C@H](NS(=O)(=O)c1ccccc1)C(=O)N1C[C@H]2[C@@H]([C@H]1C(=O)N[C@H](C#N)C[C@@H]1CCNC1=O)C2(C)C", "pEC50", 6.28),
    ("COc1ccc(S(=O)(=O)N[C@H](C(=O)N2C[C@H]3[C@@H]([C@H]2C(=O)N[C@H](C#N)C[C@@H]2CCNC2=O)C3(C)C)C(C)(C)C)cc1", "pEC50", 6.04),
    ("CC(C)(C)NC(=O)N[C@H](C(=O)N1C[C@H]2[C@@H]([C@H]1C(=O)N[C@H](C#N)C[C@@H]1CCNC1=O)C2(C)C)C(C)(C)C", "pEC50", 4.85),
    ("CC(C)(C)[C@H](NS(=O)(=O)c1cccs1)C(=O)N1C[C@H]2[C@@H]([C@H]1C(=O)N[C@H](C#N)C[C@@H]1CCNC1=O)C2(C)C", "pEC50", 6.20),
    ("C=C(F)C(=O)N[C@H](C(=O)N1C[C@H]2[C@@H]([C@H]1C(=O)N[C@H](C#N)C[C@@H]1CCNC1=O)C2(C)C)C(C)(C)C", "pEC50", 5.85),
    ("CC(C)(C)[C@H](NS(=O)(=O)CC#N)C(=O)N1C[C@H]2[C@@H]([C@H]1C(=O)N[C@H](C#N)C[C@@H]1CCNC1=O)C2(C)C", "pEC50", 6.23),
    ("Cc1ccc(S(=O)(=O)N[C@H](C(=O)N2C[C@H]3[C@@H]([C@H]2C(=O)N[C@H](C#N)C[C@@H]2CCNC2=O)C3(C)C)C(C)(C)C)cc1", "pEC50", 6.47),
    ("CN(C)S(=O)(=O)N[C@H](C(=O)N1C[C@H]2[C@@H]([C@H]1C(=O)N[C@H](C#N)C[C@@H]1CCNC1=O)C2(C)C)C(C)(C)C", "pEC50", 5.14),
    ("CC(C)(C)[C@H](NS(=O)(=O)c1ccc(OC(F)(F)F)cc1)C(=O)N1C[C@H]2[C@@H]([C@H]1C(=O)N[C@H](C#N)C[C@@H]1CCNC1=O)C2(C)C", "pEC50", 6.33),
    ("CC(C)(C)[C@H](NS(=O)(=O)c1sccc1Cl)C(=O)N1C[C@H]2[C@@H]([C@H]1C(=O)N[C@H](C#N)C[C@@H]1CCNC1=O)C2(C)C", "pEC50", 6.88),
    ("CC(C)(C)[C@H](NS(=O)(=O)c1cccc(F)c1)C(=O)N1C[C@H]2[C@@H]([C@H]1C(=O)N[C@H](C#N)C[C@@H]1CCNC1=O)C2(C)C", "pEC50", 6.58),
    ("CC(C)(C)[C@H](NC(=O)CC#N)C(=O)N1C[C@H]2[C@@H]([C@H]1C(=O)N[C@H](C#N)C[C@@H]1CCNC1=O)C2(C)C", "pEC50", 4.74),
    ("CC(C)(C)[C@H](NS(=O)(=O)c1cccc2ccccc12)C(=O)N1C[C@H]2[C@@H]([C@H]1C(=O)N[C@H](C#N)C[C@@H]1CCNC1=O)C2(C)C", "pEC50", 6.43),
    ("CC(C)(C)[C@H](NS(=O)(=O)c1ccc(Cl)s1)C(=O)N1C[C@H]2[C@@H]([C@H]1C(=O)N[C@H](C#N)C[C@@H]1CCNC1=O)C2(C)C", "pEC50", 6.90),
    ("CC(C)(C)[C@H](NS(=O)(=O)c1ccc(C(F)(F)F)cc1)C(=O)N1C[C@H]2[C@@H]([C@H]1C(=O)N[C@H](C#N)C[C@@H]1CCNC1=O)C2(C)C", "pEC50", 6.41),
    ("CC(C)(C)[C@H](NS(=O)(=O)c1ccc(C2CC2)cc1)C(=O)N1C[C@H]2[C@@H]([C@H]1C(=O)N[C@H](C#N)C[C@@H]1CCNC1=O)C2(C)C", "pEC50", 7.18),
    ("CC(C)(C)[C@H](NC(=O)C(F)(F)C(F)(F)Cl)C(=O)N1C[C@H]2[C@@H]([C@H]1C(=O)N[C@H](C#N)C[C@@H]1CCNC1=O)C2(C)C", "pEC50", 6.94),
]
